# Procedure Details: refractive index (Na D-line) (dimensionless); xn = mol fraction of the nth substance listed
# Cond: 318.15 K; 100.5 kPa; Liquid; Standard Abbe refractometry; x1 = 0.85
Property Label: refractive index

CCOC(=O)c1ccccc1O [ethyl 2-hydroxybenzoate] + CCO ... 1.50123
CCC(=O)OCc1ccccc1 [benzyl propanoate] + CCO ... 1.47824
COC(=O)c1ccccc1 [methyl benzoate] + CCO ... 1.49378
CCOC(=O)CC(C)C [ethyl 3-methylbutanoate] + CCO ... 1.38226
CCOC(=O)CC(C)=O [ethyl 3-oxobutanoate] + CCO ... 1.404
CC(=O)OCc1ccccc1 [benzyl ethanoate] + CCO ... 1.48148

====

# Procedure Details: refractive index (Na D-line) (dimensionless); xn = mol fraction of the nth substance listed
# Cond: 318.15 K; 100.5 kPa; Liquid; Standard Abbe refractometry; x1 = 0.65
Property Label: refractive index

CCOC(=O)CC(C)C [ethyl 3-methylbutanoate] + CCO ... 1.37865
CCOC(=O)CC(C)=O [ethyl 3-oxobutanoate] + CCO ... 1.397
CCC(=O)OCc1ccccc1 [benzyl propanoate] + CCO ... 1.46451
CC(=O)OCc1ccccc1 [benzyl ethanoate] + CCO ... 1.46613
CCOC(=O)c1ccccc1O [ethyl 2-hydroxybenzoate] + CCO ... 1.48397
COC(=O)c1ccccc1 [methyl benzoate] + CCO ... 1.47528

====

# Procedure Details: refractive index (Na D-line) (dimensionless); xn = mol fraction of the nth substance listed
# Cond: 288.15 K; 100.5 kPa; Liquid; Standard Abbe refractometry; x1 = 0.1
Property Label: refractive index

COC(=O)c1ccccc1 [methyl benzoate] + CCO ... 1.39497
CCC(=O)OCc1ccccc1 [benzyl propanoate] + CCO ... 1.39613
CCOC(=O)c1ccccc1O [ethyl 2-hydroxybenzoate] + CCO ... 1.40028
CC(=O)OCc1ccccc1 [benzyl ethanoate] + CCO ... 1.39462
CCOC(=O)CC(C)=O [ethyl 3-oxobutanoate] + CCO ... 1.3751
CCOC(=O)CC(C)C [ethyl 3-methylbutanoate] + CCO ... 1.37142

====

# Procedure Details: refractive index (Na D-line) (dimensionless); xn = mol fraction of the nth substance listed
# Cond: 298.18 K; 100.5 kPa; Liquid; Standard Abbe refractometry; x1 = 0.9
Property Label: refractive index

CCC(=O)OCc1ccccc1 [benzyl propanoate] + CCO ... 1.49006
CCOC(=O)CC(C)=O [ethyl 3-oxobutanoate] + CCO ... 1.4141
CCOC(=O)c1ccccc1O [ethyl 2-hydroxybenzoate] + CCO ... 1.51391
CC(=O)OCc1ccccc1 [benzyl ethanoate] + CCO ... 1.49408
COC(=O)c1ccccc1 [methyl benzoate] + CCO ... 1.50743
CCOC(=O)CC(C)C [ethyl 3-methylbutanoate] + CCO ... 1.3925

====

# Procedure Details: xn = mol fraction of the nth substance listed
# Cond: 318.15 K, Wilhelmy plate method, x1 = 0.2
Property Label: surface tension liquid-gas (mN/m)

CCOC(=O)CC(C)=O [ethyl 3-oxobutanoate] + CCO ... 22.43
CCOC(=O)CC(C)C [ethyl 3-methylbutanoate] + CCO ... 20.83
COC(=O)c1ccccc1 [methyl benzoate] + CCO ... 23.3
CCOC(=O)c1ccccc1O [ethyl 2-hydroxybenzoate] + CCO ... 23.17
CCC(=O)OCc1ccccc1 [benzyl propanoate] + CCO ... 23.3
CC(=O)OCc1ccccc1 [benzyl ethanoate] + CCO ... 23.2
